The values you see were collected from ChEMBL document CHEMBL1138366.

target: Substance-P receptor (Rattus norvegicus, UniProt P14600); assay: Displacement of [125I]Lys3-substance P from rat NK1 receptor expressed in CHO cells; assay type: cell-based; settings: read-out: IC50
Sequence (P14600 whole entry): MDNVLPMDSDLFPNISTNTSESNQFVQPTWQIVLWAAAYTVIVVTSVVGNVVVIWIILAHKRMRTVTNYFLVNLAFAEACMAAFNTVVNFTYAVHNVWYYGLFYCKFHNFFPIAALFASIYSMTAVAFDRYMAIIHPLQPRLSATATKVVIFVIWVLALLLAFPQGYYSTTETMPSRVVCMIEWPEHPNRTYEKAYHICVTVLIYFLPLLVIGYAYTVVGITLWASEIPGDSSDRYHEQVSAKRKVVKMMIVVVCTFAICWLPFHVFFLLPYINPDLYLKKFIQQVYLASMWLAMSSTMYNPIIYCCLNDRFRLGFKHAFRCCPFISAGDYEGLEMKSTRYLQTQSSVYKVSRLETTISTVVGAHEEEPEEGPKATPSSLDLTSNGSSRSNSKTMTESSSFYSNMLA
Residues, ends and D or L forms follow the SMILES beside them.
reported property: pIC50
One number for each entry, as −log10 of the molar value.

Look over these answered cases.
compound	measured target	quantitative readout
CSCC[C@H](NC(=O)[C@H](CC(C)C)NC(=O)CNC(=O)[C@H](Cc1ccccc1)NC(=O)[C@H](Cc1ccccc1)NC(=O)[C@H](CO)NC(=O)[C@H](CCC(N)=O)NC(=O)[C@@H]1CCCN1C(=O)[C@H](CCCCN)NC(=O)[C@@H]1CCCN1C(=O)[C@@H](N)CCCN=C(N)N)C(N)=O	Substance-P receptor (Rattus norvegicus, UniProt P14600)	8.39
CSCC[C@H](NC(=O)[C@H](CC(C)C)NC(=O)CNC(=O)[C@H](Cc1ccccc1)NC(=O)[C@H](Cc1ccccc1)NC(=O)[C@H](CCC(N)=O)NC(=O)[C@H](C)NC(=O)[C@@H]1CCCN1C(=O)[C@H](CCCCN)NC(=O)[C@@H]1CCCN1C(=O)[C@@H](N)CCCNC(=N)N)C(N)=O	Substance-P receptor (Rattus norvegicus, UniProt P14600)	9.15
CSCC[C@H](NC(=O)[C@H](CC(C)C)NC(=O)CNC(=O)[C@H](Cc1ccccc1)NC(=O)[C@H](Cc1ccccc1)NC(=O)[C@H](CCC(N)=O)NC(=O)[C@H](CCC(N)=O)NC(=O)[C@@H]1CCCN1C(=O)[C@H](CCCCN)NC(=O)[C@@H]1CCCN1)C(N)=O (H-PKPQQFFGLM-NH2)	Substance-P receptor (Rattus norvegicus, UniProt P14600)	8.34

Here is the next item to consider.
compound CSCC[C@H](NC(=O)[C@H](CC(C)C)NC(=O)CNC(=O)[C@H](Cc1ccccc1)NC(=O)[C@H](Cc1ccccc1)NC(=O)[C@H](CO)NC(=O)[C@H](C)NC(=O)[C@@H]1CCCN1C(=O)[C@H](CCCCN)NC(=O)[C@@H]1CCCN1C(=O)[C@@H](N)CCCN=C(N)N)C(N)=O (H-RPKPASFFGLM-NH2) , pIC50 observed: 7.68
